Values were extracted from patent US20240116985A1.

Listed here: items and their measured IC50.
Target System: full-length beta-Catenin (Uniprot ID P35222) (Homo sapiens (Human)) (UniProt P35222)
Sequence (P35222 2-781 limits assumed): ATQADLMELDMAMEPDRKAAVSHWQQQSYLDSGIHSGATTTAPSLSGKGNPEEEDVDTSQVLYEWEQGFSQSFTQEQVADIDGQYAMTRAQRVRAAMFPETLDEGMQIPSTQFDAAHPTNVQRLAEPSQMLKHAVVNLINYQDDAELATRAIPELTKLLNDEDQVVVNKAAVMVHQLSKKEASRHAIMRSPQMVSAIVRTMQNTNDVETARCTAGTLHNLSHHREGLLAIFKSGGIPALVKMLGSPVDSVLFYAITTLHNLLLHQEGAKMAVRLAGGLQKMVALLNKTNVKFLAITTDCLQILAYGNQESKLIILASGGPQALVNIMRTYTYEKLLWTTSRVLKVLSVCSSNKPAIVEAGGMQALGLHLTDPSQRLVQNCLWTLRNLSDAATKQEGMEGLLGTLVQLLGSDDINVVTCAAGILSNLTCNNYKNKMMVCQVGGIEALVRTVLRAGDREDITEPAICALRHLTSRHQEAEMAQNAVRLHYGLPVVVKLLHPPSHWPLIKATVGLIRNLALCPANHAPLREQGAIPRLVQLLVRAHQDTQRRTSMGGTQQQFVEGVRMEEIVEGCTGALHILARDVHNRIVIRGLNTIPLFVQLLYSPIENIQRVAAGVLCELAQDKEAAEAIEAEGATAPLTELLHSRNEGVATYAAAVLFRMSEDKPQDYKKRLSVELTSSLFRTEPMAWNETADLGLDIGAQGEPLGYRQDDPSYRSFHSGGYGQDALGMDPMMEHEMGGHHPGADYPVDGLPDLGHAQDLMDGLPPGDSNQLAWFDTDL
Experiment: fluorescence polarization competition; 10 nM full-length beta-catenin + 10 nM 5FAM-TCF4(10-53) probe, peptide titrated 10 uM to 5 nM
Starred links: 1 amine or outer side, 2 acyl side, 3 side chain; linkers in the order of their positions; H or OH if unused. Positions of bridges follow the written chain, without caps; N, C: chain ends. Non-standard residues stand in square brackets, D forms with d. Primed or numbered codes have the meaning given here. PyrS2″ = (S)-3-amino-1-((pent-4-en-1-yloxy)carbonyl)pyrrolidine-3-carboxylic acid (stapling residue), C=CCCCOC(=O)N1CC[C@@](N[*:1])(C(=O)[*:2])C1; B5(30) = 2-amino-2-(pent-4-en-1-yl)hept-6-enoic acid (2,2-bis(4-pentenyl)glycine, stitching residue), C=CCCCC(CCCC=C)(N[*:1])C(=O)[*:2]; B5(4) = 2,2-bis(4-pentenyl)glycine = 2-amino-2-(pent-4-en-1-yl)hept-6-enoic acid (stitching residue), C=CCCCC(CCCC=C)(N[*:1])C(=O)[*:2]; B5(5) = 2,2-bis(4-pentenyl)glycine, 2-amino-2-(pent-4-en-1-yl)hept-6-enoic acid (stitching residue), C=CCCCC(CCCC=C)(N[*:1])C(=O)[*:2]; Phe(3-COOH) = N[C@@H](Cc1cccc(C(=O)O)c1)C(=O)O; Phe(2-CF3) = N[C@@H](Cc1ccccc1C(F)(F)F)C(=O)O; Bta = N[C@@H](Cc1csc2ccccc12)C(=O)O; Lys(iPr) = CC(C)NCCCC[C@H](N)C(=O)O; αAllylPro = C=CC[C@@]1(C(=O)O)CCCN1; tBuAla = CC(C)(C)C[C@H](N)C(=O)O; 3Thi = N[C@@H](Cc1ccsc1)C(=O)O; Cha = N[C@@H](CC1CCCCC1)C(=O)O; hSer = N[C@@H](CCO)C(=O)O
Endpoint: IC50 (nM)

Ac-[αAllylPro]N[Cha][B5(30)]DT[hSer]AFL[PyrS2″]F[Bta]Q-NH2 (staple 1-4, 4-11; not fully specified; printed as Ac-PL3-Asn-Cha-B5-Asp-Thr-Hse-Ala-Phe-Leu-PyrS2-Phe-BztA-Gln-NH2) [I-2447]: 3250
Ac-[αAllylPro]D[tBuAla][B5(4)]D[Phe(3-COOH)]QAFL[PyrS2″][Phe(2-CF3)][SbMeBztA]A-NH2 (staple 1-4, 4-11) [I-2457]: 52
Ac-[αAllylPro]N[Cha][B5(5)]DQ[Lys(iPr)]AFL[PyrS2″][3Thi][Bta]Q-NH2 (staple 1-4, 4-11; not fully specified; printed as Ac-PL3-Asn-Cha-B5-Asp-Gln-iPrLys-Ala-Phe-Leu-PyrS2-3Thi-BztA-Gln-NH2) [I-2446]: 93
